Recorded values, source ChEMBL document CHEMBL4422692.

Entries and their measured Emax follow.
- ASSAY_SYSTEM: N-acylethanolamine-hydrolyzing acid amidase (Homo sapiens) (UniProt Q02083)
- Sequence (Q02083 29-125 limits assumed): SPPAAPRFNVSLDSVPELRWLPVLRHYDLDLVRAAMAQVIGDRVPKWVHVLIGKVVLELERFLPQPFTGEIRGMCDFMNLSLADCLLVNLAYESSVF
- Sequence (Q02083 126-359 limits assumed): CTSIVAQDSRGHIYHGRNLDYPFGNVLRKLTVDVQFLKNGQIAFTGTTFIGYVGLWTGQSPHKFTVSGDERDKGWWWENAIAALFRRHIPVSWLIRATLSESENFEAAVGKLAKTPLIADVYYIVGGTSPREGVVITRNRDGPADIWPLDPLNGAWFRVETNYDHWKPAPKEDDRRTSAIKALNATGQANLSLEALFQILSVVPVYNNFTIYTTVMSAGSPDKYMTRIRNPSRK
- EXPERIMENT_DESCRIPTION: Inhibition of recombinant human NAAA expressed in HEK293 cells at 50 uM using [14C]-N-palmitoylethanolamine as substrate measured after 30 mins by beta-counting method relative to control
- Assay type: cell-based
QUANTITY_MEASURED: Emax

>>> recorded_measurement("C=C(C)[C@@H]1CCC(C)=C[C@H]1c1c(O)cc(CCC)cc1O")
"54.5%"
>>> recorded_measurement("C=C(C)[C@@H]1CCC(C)=C[C@H]1c1c(O)cc(CCCCC)cc1O")
"47.2%"
>>> recorded_measurement("CCCCCc1cc(O)c2c(c1)OC(C)(CCC=C(C)C)C=C2 (stereo unspecified)")
"40.6%"
>>> recorded_measurement("CCCc1cc2c(c(O)c1C(=O)O)[C@@H]1C=C(C)CC[C@H]1C(C)(C)O2")
"20.5%"
>>> recorded_measurement("CCCCCc1cc(O)c(C/C=C(\\C)CCC=C(C)C)c(O)c1")
"19.4%"
>>> recorded_measurement("CCCc1cc(O)c2c(c1)OC(C)(C)[C@@H]1CCC(C)=C[C@@H]21 [TETRAHYDROCANNABIVARIN]")
"18.2%"

----------
- ASSAY_SYSTEM: UniProt:Q9Y4D2
- Sequence (Q9Y4D2 whole entry): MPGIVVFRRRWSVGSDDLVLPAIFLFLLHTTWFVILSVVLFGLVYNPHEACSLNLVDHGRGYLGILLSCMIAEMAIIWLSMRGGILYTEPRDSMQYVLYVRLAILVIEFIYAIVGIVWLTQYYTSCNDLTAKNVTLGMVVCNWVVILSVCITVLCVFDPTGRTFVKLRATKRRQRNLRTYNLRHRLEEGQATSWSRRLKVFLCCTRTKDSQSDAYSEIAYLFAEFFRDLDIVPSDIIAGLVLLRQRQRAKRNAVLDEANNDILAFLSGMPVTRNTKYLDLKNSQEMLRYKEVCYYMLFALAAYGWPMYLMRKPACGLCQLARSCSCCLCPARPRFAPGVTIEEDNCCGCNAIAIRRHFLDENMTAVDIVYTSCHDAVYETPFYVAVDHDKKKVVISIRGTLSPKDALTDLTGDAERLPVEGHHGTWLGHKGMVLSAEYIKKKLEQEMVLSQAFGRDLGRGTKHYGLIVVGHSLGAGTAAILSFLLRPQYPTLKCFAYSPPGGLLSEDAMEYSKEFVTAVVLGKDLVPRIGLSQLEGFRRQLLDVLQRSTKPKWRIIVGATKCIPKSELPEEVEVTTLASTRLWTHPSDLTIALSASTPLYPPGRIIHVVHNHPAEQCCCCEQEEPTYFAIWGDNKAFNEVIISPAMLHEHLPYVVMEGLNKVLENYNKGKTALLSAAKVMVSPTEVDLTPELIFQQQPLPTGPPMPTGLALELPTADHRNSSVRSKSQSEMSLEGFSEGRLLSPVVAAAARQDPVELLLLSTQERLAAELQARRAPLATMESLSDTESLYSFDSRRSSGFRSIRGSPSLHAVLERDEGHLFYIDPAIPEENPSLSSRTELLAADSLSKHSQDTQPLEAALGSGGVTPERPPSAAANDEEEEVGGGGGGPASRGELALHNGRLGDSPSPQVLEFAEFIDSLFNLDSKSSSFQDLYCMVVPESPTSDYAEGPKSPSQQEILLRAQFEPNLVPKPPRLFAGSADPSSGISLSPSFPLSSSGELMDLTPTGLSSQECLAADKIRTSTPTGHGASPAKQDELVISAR
- EXPERIMENT_DESCRIPTION: Inhibition of recombinant human DAGLalpha expressed in COS7 cells using [14C]-oleoyl-2-arachidonoyl-glycerol as substrate measured after 20 mins by beta-counting method
QUANTITY_MEASURED: IC50

>>> recorded_measurement("CCCCCc1cc(O)c2c(c1)OC(C)(C)c1ccc(C)cc1-2")
"> 50 µM"
>>> recorded_measurement("CCCc1cc2c(c(O)c1C(=O)O)[C@@H]1C=C(C)CC[C@H]1C(C)(C)O2")
"> 50 µM"
>>> recorded_measurement("CCCc1cc(O)c2c(c1)OC(C)(C)[C@@H]1CCC(C)=C[C@@H]21 [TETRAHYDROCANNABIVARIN]")
"> 50 µM"
>>> recorded_measurement("CCCCCc1cc(O)c(C/C=C(\\C)CCC=C(C)C)c(O)c1")
"> 100 µM"
